- system.name: Human SST5 somatostatin receptor (SSTR5) (Homo sapiens)
- Construct: expressed in transfected cells; host or cells: HEK-293 EBNA
- Sequence (P35346 whole entry): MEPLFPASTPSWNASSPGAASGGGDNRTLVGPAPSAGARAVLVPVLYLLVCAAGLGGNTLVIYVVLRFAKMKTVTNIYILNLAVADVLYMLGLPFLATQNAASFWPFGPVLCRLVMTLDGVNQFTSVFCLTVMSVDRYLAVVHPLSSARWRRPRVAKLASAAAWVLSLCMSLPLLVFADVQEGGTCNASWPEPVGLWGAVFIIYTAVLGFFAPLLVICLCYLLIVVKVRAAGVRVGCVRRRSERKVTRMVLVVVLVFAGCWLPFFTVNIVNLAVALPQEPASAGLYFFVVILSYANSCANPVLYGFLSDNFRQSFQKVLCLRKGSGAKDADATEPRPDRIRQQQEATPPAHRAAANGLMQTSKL
- test.name: Filter plate assay for SST5 receptor, displacement of [125I]SST-14
- Format: binding
- cond: 10 uM
The reader will find reported SSTR5 Inhib 10 uM % (inhibition of binding of SST-14 to SSTR5) values listed item by item below.
API: value field is a number in %; no unit string.

{"compound": "COC[C@H]1OC(OCc2ccc3ccccc3c2)[C@H](NC(=O)CNC(=N)N)[C@H](OCc2ccc3ccccc3c2)[C@@H]1O (stereo partly shown)", "result.units": "%", "observed": 71}
{"compound": "COC[C@H]1OC(OCc2ccc(-c3ccccc3)cc2)[C@H](NC(=O)CCCN)[C@@H](OCc2ccc3ccccc3c2)[C@@H]1O (stereo partly shown)", "result.units": "%", "observed": 95}
{"compound": "CSC1O[C@H](COCc2ccccc2)[C@@H](O)[C@@H](OCc2ccc3ccccc3c2)[C@H]1NC(=O)CNC(=N)N (stereo partly shown)", "result.units": "%", "observed": 89}

Q: Supply recorded SSTR5 Inhib 10 uM % (inhibition of binding of SST-14 to SSTR5) for COC[C@H]1OC(OCc2ccc(Cl)cc2)[C@H](NC(=O)CCNC(=N)N)[C@@H](OCc2ccc(-c3ccccc3)cc2)[C@@H]1O (stereo partly shown) here.
Result: 84

Q: Supply recorded SSTR5 Inhib 10 uM % (inhibition of binding of SST-14 to SSTR5) for COC[C@H]1OC(OCc2ccc(-c3ccccc3)cc2)[C@H](NC(=O)CCCNC(=N)N)[C@@H](OCc2ccc(-c3ccccc3)cc2)[C@@H]1O (stereo partly shown) [Compound 77] here.
Result: 88

Q: Supply recorded SSTR5 Inhib 10 uM % (inhibition of binding of SST-14 to SSTR5) for COC[C@H]1OC(OCc2ccccc2)[C@H](NC(=O)CCCN)[C@@H](OCc2ccc(Cl)cc2)[C@@H]1O (stereo partly shown) here.
Result: 83

Q: Supply recorded SSTR5 Inhib 10 uM % (inhibition of binding of SST-14 to SSTR5) for COC[C@H]1OC(OCCc2ccccc2)[C@H](NC(=O)CCCN)[C@@H](OCc2ccc(Cl)cc2)[C@@H]1O (stereo partly shown) [Compound 145] here.
Result: 78

Q: Supply recorded SSTR5 Inhib 10 uM % (inhibition of binding of SST-14 to SSTR5) for COC[C@H]1OC(OCCc2ccccc2)[C@H](NC(=O)CCN)[C@H](OCc2ccc(Cl)cc2)[C@@H]1O (stereo partly shown) here.
Result: 95

Q: Supply recorded SSTR5 Inhib 10 uM % (inhibition of binding of SST-14 to SSTR5) for COC[C@H]1OC(OCCc2ccccc2)[C@H](NC(=O)CCCN)[C@@H](OCc2ccc3ccccc3c2)[C@@H]1O (stereo partly shown) [Compound 73] here.
Result: 89

Q: Supply recorded SSTR5 Inhib 10 uM % (inhibition of binding of SST-14 to SSTR5) for CSC1O[C@H](COCc2ccccc2)[C@@H](O)[C@@H](OCc2ccc(Cl)cc2)[C@H]1NC(=O)CNC(=N)N (stereo partly shown) here.
Result: 93

Q: Supply recorded SSTR5 Inhib 10 uM % (inhibition of binding of SST-14 to SSTR5) for CO[C@H]1[C@H](O)[C@@H](COCc2ccc(Cl)cc2)OC(OCc2ccc(Cl)cc2)[C@@H]1NC(=O)CCCN (stereo partly shown) here.
Result: 81

Q: Supply recorded SSTR5 Inhib 10 uM % (inhibition of binding of SST-14 to SSTR5) for COC[C@H]1OC(OCc2ccc(Cl)cc2)[C@H](NC(=O)CCCN)[C@@H](OCc2ccc3ccccc3c2)[C@@H]1O (stereo partly shown) [Compound 48] here.
Result: 92

Q: Supply recorded SSTR5 Inhib 10 uM % (inhibition of binding of SST-14 to SSTR5) for COC[C@H]1OC(OCc2ccc3ccccc3c2)[C@H](NC(=O)CCNC(=N)N)[C@@H](OCc2ccc(-c3ccccc3)cc2)[C@@H]1O (stereo partly shown) [Compound 52] here.
Result: 92
